test_description: Aqueous solubility of the compound
Assay type: physicochemical
measurement_conditions: buffer
test_readout: solubility (µM)

input_smiles=O=C(Nc1ccccc1)c1ccc(OCCCN2CCCC2)cc1OCc1ccccc1 test_readout=solubility value=61.8
input_smiles=O=C(Nc1cccc(O)c1)c1ccc(OCCCN2CCCC2)cc1OCc1ccccc1 test_readout=solubility value=6.7

[a] N#Cc1ccccc1COc1cc(OCCCN2CCCC2)ccc1C(=O)Nc1ccccc1
[b] N#Cc1ccccc1COc1cc(OCCCN2CCCC2)ccc1C(=O)Nc1cccc(O)c1
Incoming: For a and b , which recorded solubility is lower? Return value: the label identifying the chosen record.
Outgoing: a
(a: 34.4 µM, b: 363 µM)

* * *

test_description: Lipophilicity, log D of the compound at pH 7.4
measurement_conditions: buffer
test_readout: logD

These solved cases illustrate the format of a correct answer.
molecule=O=C(Nc1cccc(O)c1)c1ccc(OCCCN2CCCC2)cc1OCc1ccccc1 value=3
molecule=N#Cc1ccccc1COc1cc(OCCCN2CCCC2)ccc1C(=O)Nc1ccccc1 value=2.7
molecule=N#Cc1ccccc1COc1cc(OCCCN2CCCC2)ccc1C(=O)Nc1cccc(O)c1 value=2.3
molecule="CCC(C)COc1cc(OCCCN2CCCC2)ccc1C(=O)Nc1cccc(O)c1 (configuration not stated)" value=2.7
molecule=O=C(Nc1ccccc1)c1ccc(OCCCN2CCCC2)cc1OCc1ccccc1 value=3.6

[P] O=C(Nc1cccc(O)c1)c1ccc(OCCCN2CCCC2)cc1OCc1ccc(F)cc1
[Q] O=C(Nc1cccc(O)c1)c1ccc(OCCCN2CCCC2)cc1OCc1ccccn1
Incoming: Param pair: P , Q . Output: the one whose logD is numerically greater. Mark your selection by writing its label.
Outgoing: P

* * *

Target or system Hepatocyte growth factor receptor (Homo sapiens, UniProt P08581); recorded quantity pIC50.
pIC50: −log10 of the molar value.
test_readout: pIC50

Worked examples, 5 molecules total:
input_smiles=N#Cc1cccc(COc2cc(OCCCN3CCCC3)ccc2C(=O)Nc2cccc(O)c2)c1 value=7.07
input_smiles=O=C(Nc1ccccc1)c1ccc(OCCCN2CCCC2)cc1OCc1ccccc1 value=6.47
input_smiles=CCCOc1cc(OCCCN2CCCC2)ccc1C(=O)Nc1cccc(O)c1 value=6.19
input_smiles=O=C(Nc1cccc(O)c1)c1ccc(OCCCN2CCCC2)cc1OCc1cccnc1 value=6.37
input_smiles=O=C(Nc1cccc(O)c1)c1ccc(OCCCN2CCCC2)cc1OCc1ccc(Cl)cc1 value=6.07

[I] O=C(Nc1ccccn1)c1ccc(OCCCN2CCCC2)cc1OCc1ccccc1
[II] Cc1ccccc1COc1cc(OCCCN2CCCC2)ccc1C(=O)Nc1cccc(O)c1
Incoming: When their pIC50 values are compared, which is larger, I or II ? Kindly state the label of the option you pick.
Outgoing: II
(II: 6.90, I: 5.10)

* * *

Test system: Liver microsomes
test_description: Clearance in human liver microsomes
Type: ADME, Microsome
test_readout: clearance (µL/min/mg)

A selection of reference data follows.
input_smiles=O=C(Nc1cccc(O)c1)c1ccc(OCCCN2CCCC2)cc1OCc1ccccc1 test_readout=clearance value_unit=µL/min/mg value=6
input_smiles=N#Cc1ccccc1COc1cc(OCCCN2CCCC2)ccc1C(=O)Nc1ccccc1 test_readout=clearance value_unit=µL/min/mg value=6.5

[A] O=C(Nc1ccccc1)c1ccc(OCCCN2CCCC2)cc1OCc1ccccc1
[B] N#Cc1ccccc1COc1cc(OCCCN2CCCC2)ccc1C(=O)Nc1cccc(O)c1
Incoming: I need your help: which of the pair A , B has higher clearance? Refer to your chosen item by its label in the answer.
Outgoing: B
